Values from patent US6008356A

Quick reference for Efficacy (%) 2 day later among some molecules
# System: Epidermophyton floccosum
# test.method.notes: Antifungal efficacy of creamy formulation against local fungal skin infection
# Format: in vivo, mouse (SKH/1, hairless, male)
# conditions: 0.5% cream, topical, 2 day later
Lab book: enter the figure in %, no units written.

Input line: Quick check: Efficacy (%) 2 day later of C=Cc1ccc(Cc2c3[n+](cc4c(OC)c(OC)ccc24)CCc2cc4c(cc2-3)OCO4)cc1 [compound 60, 13-(4-vinylbenzyl)berberine chloride] ?
Output line: 32.0

Input line: Reported Efficacy (%) 2 day later for COc1ccc2c(Cc3ccc(-c4ccccc4)cc3)c3[n+](cc2c1OC)CCc1cc2c(cc1-3)OCO2 [compound 35, 13-(4-phenylbenzyl)berberine chloride] : what is it?
Output line: 57.9

Input line: Requested read-out: Efficacy (%) 2 day later. Entry: COc1cc(Cc2c3[n+](cc4c(OC)c(OC)ccc24)CCc2cc4c(cc2-3)OCO4)cc(OC)c1OC [compound 29]
Output line: 33.4

Input line: # Efficacy (%) 2 day later lookup, item CCCOc1cc2c(cc1OCCC)-c1cc3ccc(OCCC)c(OCCC)c3c[n+]1CC2 [compound 85]
Output line: 38.8

Input line: Give its Efficacy (%) 2 day later value. Item: COc1ccc2c(Cc3ccc(C(C)C)cc3)c3[n+](cc2c1OC)CCc1cc2c(cc1-3)OCO2 [compound 63, 13-(4-i-propylbenzyl)berberine chloride]
Output line: 52.5

Input line: Entry COc1ccc2c(Cc3ccc(C(C)(C)C)cc3)c3[n+](cc2c1OC)CCc1cc2c(cc1-3)OCO2 [compound 62, 13-(4-t-butylbenzyl)berberine chloride] : reported Efficacy (%) 2 day later = ?
Output line: 55.4

====

# Tested on: Epidermophyton floccosum
# test.method.notes: Antifungal efficacy of creamy formulation against local fungal skin infection
# Format: in vivo, mouse (SKH/1, hairless, male)
# conditions: 0.5% cream, topical, 3 day later
// returns Not satisfied unless Efficacy (%) 3 day later is strictly below 40%, in which case Satisfied

The examples below pair each entry with its known result.
Input line: Item COc1ccc2c(Cc3ccc(-c4ccccc4)cc3)c3[n+](cc2c1OC)CCc1cc2c(cc1-3)OCO2 [compound 35, 13-(4-phenylbenzyl)berberine chloride] : Efficacy (%) 3 day later beneath 40%, strictly?
Output line: Not satisfied

Input line: is_below(Efficacy (%) 3 day later, 40%) for COc1ccc2c(Cc3ccc(C(C)C)cc3)c3[n+](cc2c1OC)CCc1cc2c(cc1-3)OCO2 [compound 63, 13-(4-i-propylbenzyl)berberine chloride] ?
Output line: Not satisfied

Input line: Lab note: Efficacy (%) 3 day later threshold 40%. Does this compound come in strictly under it? "CCCOc1cc2c(cc1OCCC)-c1cc3ccc(OCCC)c(OCCC)c3c[n+]1CC2"
Output line: Not satisfied

Input line: Lab note: confirm whether the reported Efficacy (%) 3 day later for this compound is below 40%, equality not counting. compound: COc1ccc2c(Cc3ccc(C(C)(C)C)cc3)c3[n+](cc2c1OC)CCc1cc2c(cc1-3)OCO2 [compound 62, 13-(4-t-butylbenzyl)berberine chloride]
Output line: Not satisfied

Input line: Please state whether Efficacy (%) 3 day later is below 40% for C=Cc1ccc(Cc2c3[n+](cc4c(OC)c(OC)ccc24)CCc2cc4c(cc2-3)OCO4)cc1 [compound 60, 13-(4-vinylbenzyl)berberine chloride]
Output line: Satisfied

Now examine the next entry.
Input line: Consider the compound "COc1cc(Cc2c3[n+](cc4c(OC)c(OC)ccc24)CCc2cc4c(cc2-3)OCO4)cc(OC)c1OC" . Is its Efficacy (%) 3 day later strictly less than 40%?
Output line: Satisfied

====

# Tested on: Epidermophyton floccosum
# test.method.notes: Antifungal efficacy of creamy formulation against local fungal skin infection
# Type: in vivo, mouse (SKH/1, hairless, male)
# conditions: 0.5% cream, topical, 0 day later
endpoint.label: Efficacy (%) 0 day later
Answer as a quantity: numeral, then unit.

Input line: Quick check: Efficacy (%) 0 day later of C=Cc1ccc(Cc2c3[n+](cc4c(OC)c(OC)ccc24)CCc2cc4c(cc2-3)OCO4)cc1 [compound 60, 13-(4-vinylbenzyl)berberine chloride] ?
Output line: 0%

Input line: Form field: reported Efficacy (%) 0 day later of COc1ccc2c(Cc3ccc(C(C)(C)C)cc3)c3[n+](cc2c1OC)CCc1cc2c(cc1-3)OCO2 [compound 62, 13-(4-t-butylbenzyl)berberine chloride]
Output line: 0%

Lab note: next molecule to report on.
Input line: What does the record list as Efficacy (%) 0 day later for "COc1cc(Cc2c3[n+](cc4c(OC)c(OC)ccc24)CCc2cc4c(cc2-3)OCO4)cc(OC)c1OC" ?
Output line: 0%

====

# Test system: C. albicans U.K.
# test.method.notes: MIC
# Format: cell-based
# conditions: Candida albicans; C. albicans U.K.; read-out: MIC
endpoint.label: MIC (µg/mL)
# value in µg/mL; strip the unit string

Input line: For C. albicans U.K., provide MIC of COc1ccc2c(Cc3ccc(C(C)(C)C)cc3)c3[n+](cc2c1OC)CCc1cc2c(cc1-3)OCO2 [compound 62, 13-(4-t-butylbenzyl)berberine chloride] please.
Output line: 6.25

Input line: For the record COc1ccc2c(Cc3ccc(C(C)C)cc3)c3[n+](cc2c1OC)CCc1cc2c(cc1-3)OCO2 [compound 63, 13-(4-i-propylbenzyl)berberine chloride] , what value of MIC is listed for C. albicans U.K.?
Output line: 6.25

Input line: Value wanted: MIC (C. albicans U.K.) of entry "CCCOc1cc2c(cc1OCCC)-c1cc3ccc(OCCC)c(OCCC)c3c[n+]1CC2"
Output line: 50

***
Input line: Tell me reported MIC for COc1ccc2c(Cc3ccc(-c4ccccc4)cc3)c3[n+](cc2c1OC)CCc1cc2c(cc1-3)OCO2 [compound 35, 13-(4-phenylbenzyl)berberine chloride] , tested with C. albicans U.K..
Output line: 12.5

====

# test.method.notes: acute oral toxicity
# conditions: rat, in vivo, po, rats, male
// reported LD50 per item

Look over these answered cases.
Input line: Request the reported LD50 associated with COc1ccc2c(Cc3ccc(C(C)(C)C)cc3)c3[n+](cc2c1OC)CCc1cc2c(cc1-3)OCO2 [compound 62, 13-(4-t-butylbenzyl)berberine chloride]
Output line: > 3700 mg/kg

Input line: // LD50 lookup, key: COc1ccc2c(Cc3ccc(C(C)C)cc3)c3[n+](cc2c1OC)CCc1cc2c(cc1-3)OCO2 [compound 63, 13-(4-i-propylbenzyl)berberine chloride]
Output line: > 2500 mg/kg

Input line: Entry under review: COc1ccc2c(Cc3cccc(C(F)(F)F)c3)c3[n+](cc2c1OC)CCc1cc2c(cc1-3)OCO2 [compound 25] . Reported LD50?
Output line: > 3000 mg/kg

Further cases:
Input line: # input compound: CCCOc1cc2c(cc1OCCC)-c1cc3ccc(OCCC)c(OCCC)c3c[n+]1CC2 [compound 85] ; wanted: its LD50
Output line: > 5000 mg/kg

====

Recorded LD50 by entry
# test.method.notes: acute oral toxicity
# conditions: rat, in vivo, po, rats, female

Sample answers from the record:
Input line: # lookup: LD50 of CCCOc1cc2c(cc1OCCC)-c1cc3ccc(OCCC)c(OCCC)c3c[n+]1CC2 [compound 85]
Output line: > 5000 mg/kg

Input line: Sample COc1ccc2c(Cc3cccc(C(F)(F)F)c3)c3[n+](cc2c1OC)CCc1cc2c(cc1-3)OCO2 [compound 25] — what was its LD50?
Output line: > 2500 mg/kg

New cases:
Input line: Record request: LD50 value, item COc1ccc2c(Cc3ccc(C(C)(C)C)cc3)c3[n+](cc2c1OC)CCc1cc2c(cc1-3)OCO2 [compound 62, 13-(4-t-butylbenzyl)berberine chloride]
Output line: > 2700 mg/kg

Input line: Fill blank: measured LD50 of the molecule COc1ccc2c(Cc3ccc(C(C)C)cc3)c3[n+](cc2c1OC)CCc1cc2c(cc1-3)OCO2 [compound 63, 13-(4-i-propylbenzyl)berberine chloride] is ____.
Output line: > 2000 mg/kg
